This collection of values is drawn from patent US20090298765A1.

Assignment: determine reported pIC50 for the given binders.
molecular target: T1, human OT7T175 (metastin receptor) (human, UniProt Q969F8 1-398); experiment: competition with Cy-5 metastin (40-54) on hOT7T175-CHO cells, FMAT
T1 construct: expressed on CHO cells; also called hOT7T175; hOT7T175-expressed CHO cells
T1 sequence (Q969F8 whole entry L364H): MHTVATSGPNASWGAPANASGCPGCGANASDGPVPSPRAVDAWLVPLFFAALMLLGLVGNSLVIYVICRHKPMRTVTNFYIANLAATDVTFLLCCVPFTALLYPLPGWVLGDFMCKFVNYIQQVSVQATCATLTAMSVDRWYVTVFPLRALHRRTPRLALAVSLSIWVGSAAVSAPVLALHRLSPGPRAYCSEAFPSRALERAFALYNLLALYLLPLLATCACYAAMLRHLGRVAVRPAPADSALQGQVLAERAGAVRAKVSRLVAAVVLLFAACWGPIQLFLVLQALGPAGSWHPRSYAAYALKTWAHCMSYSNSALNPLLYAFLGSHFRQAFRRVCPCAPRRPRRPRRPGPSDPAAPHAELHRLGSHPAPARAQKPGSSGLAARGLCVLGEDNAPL
Non-standard residues stand in square brackets, D forms with d. No end group written: not given here. Phe(4-F) = N[C@@H](Cc1ccc(F)cc1)C(=O)O; Arg(Me) = CNC(=N)NCCC[C@H](N)C(=O)O; 4Pal = N[C@@H](Cc1ccncc1)C(=O)O; d3Pal = N[C@H](Cc1cccnc1)C(=O)O; azaGly = NNC(=O)O
One number for each entry, as −log10 of the molar value.

// query Recall and state the measured pIC50 for {4‑imidazoleacetyl}-NSF[azaGly]L[Arg(Me)]F-NH2 (also called Compound No. 323) [des(1-3)-4-Imidazoleacetyl-[AzaGly7,Arg(Me)9]MS10] .
// result 6.55

// query Dear colleague, please send me the reported pIC50 for YNANSFGLRF-NH2 (also called Compound No. 67) [[Ala3]MS10] when you can.
// result 7.57

// query Annotate the binder [dW]NSFGL[Arg(Me)]F-NH2 (also called Compound No. 223) [des(1-2)-[D-Trp3,Arg(Me)9]MS10] with its measured pIC50.
// result 6.12

Return reported pIC50 values for all items listed beneath this line.
1. {n‑hexanoyl}-NSF[azaGly]L[Arg(Me)]F-NH2 (also called Compound No. 277) [des(1-3)-n-Hexanoyl-[AzaGly7,Arg(Me)9]MS10]
2. [dY][dN][4Pal]NSF[azaGly]L[Arg(Me)][Phe(4-F)]-NH2 (N-terminus assumed; SMILES CNC(=N)NCCC[C@H](NC(=O)[C@H](CC(C)C)NC(=O)NNC(=O)[C@H](Cc1ccccc1)NC(=O)[C@H](CO)NC(=O)[C@H](CC(N)=O)NC(=O)[C@H](Cc1ccncc1)NC(=O)[C@@H](CC(N)=O)NC(=O)[C@H](N)Cc1ccc(O)cc1)C(=O)N[C@@H](Cc1ccc(F)cc1)C(N)=O, also called Compound No. 317) [[D-Tyr1,D-Asn2,Pya(4)3,AzaGly7,Arg(Me)9,Phe(4F)10]MS10]

// result
[7.27, 8.68]

Hi, could you look up pIC50 for each item in my list?
1. [dY]NPNSF[azaGly]L[Arg(Me)]F-NH2 (N-terminus assumed; SMILES CNC(=N)NCCC[C@H](NC(=O)[C@H](CC(C)C)NC(=O)NNC(=O)[C@H](Cc1ccccc1)NC(=O)[C@H](CO)NC(=O)[C@H](CC(N)=O)NC(=O)[C@@H]1CCCN1C(=O)[C@H](CC(N)=O)NC(=O)[C@H](N)Cc1ccc(O)cc1)C(=O)N[C@@H](Cc1ccccc1)C(N)=O, also called Compound No. 253) [[D-Tyr1,Pro3,AzaGly7,Arg(Me)9]MS10]
2. [d3Pal]NWNSF[azaGly]L[Arg(Me)]F-NH2 (N-terminus assumed; SMILES CNC(=N)NCCC[C@H](NC(=O)[C@H](CC(C)C)NC(=O)NNC(=O)[C@H](Cc1ccccc1)NC(=O)[C@H](CO)NC(=O)[C@H](CC(N)=O)NC(=O)[C@H](Cc1c[nH]c2ccccc12)NC(=O)[C@H](CC(N)=O)NC(=O)[C@H](N)Cc1cccnc1)C(=O)N[C@@H](Cc1ccccc1)C(N)=O, also called Compound No. 258) [[D-Pya(3)1,AzaGly7,Arg(Me)9]MS10]

// result
[7.57, 7.05]
